- Tested on: A549
- TEST NAME: NCI tumour cell line growth inhibition, 48 h
Activity calls are given as the source filed them. No stated cut-off is given here; in the data, active = GI50 up to about 1.1 µM and inactive = higher.

| MOLECULE | GI50 |
| --- | --- |
| CC(=O)NC1C(OC2C(CO)OC(OCC3OC(n4ccc(N)nc4=O)C(O)C3O)C(NC(C)=O)C2O)OC(CO)C(O)C1O (configuration not stated) | > 100 µM (inactive) |
| S=C(N/N=C/c1ccccc1)NC1CC(c2ccccc2)Oc2ccccc21 (configuration not stated) | 26.8 µM (inactive) |
| CN(C)CCSc1cc(-c2ccccc2)c2ccccc2n1 | 13.6 µM (inactive) |
| COc1ccc(/C=N/n2cnc3c(c2=O)SC(=C(C#N)C#N)N3c2ccccc2)cc1 | > 100 µM (inactive) |
| CCOC(=O)c1nc(-c2ccccc2)oc1OCC | > 100 µM (inactive) |
| CCOC(=O)Nn1c(C)nnc1CC#N | > 100 µM (inactive) |
| Cc1cc(=O)oc2cc3c(cc12)Oc1ccccc1O3 | > 100 µM (inactive) |
| CNC(=O)c1ccccc1[S+]1c2cccc3cccc(c23)C(=O)N1C (configuration not stated) | > 100 µM (inactive) |
| Cc1ccc2c(c1C)C(=O)C1(C2)Cc2ccc3c(c2C1=O)CCC3 (configuration not stated) | > 100 µM (inactive) |
| O=C1CCC2(c3ccc(F)cc3)Nc3ccccc3N12 (configuration not stated) | > 100 µM (inactive) |
| CC1=CC(C)C/C=C/C2C3OC3(C)C(C)C3C(Cc4c[nH]c5ccccc45)NC(=O)C23C(=O)C=CC(=O)C1O (configuration not stated) | 8.3 µM (inactive) |
| c1ccc2c(c1)ccc1nc(-c3ccc4c(c3)OCO4)c3c(c12)CCCC3 | 20.6 µM (inactive) |

----------
// reported GI50 for each item listed
- Tested on: MOLT-4
- TEST NAME: NCI tumour cell line growth inhibition, 48 h
Activity calls are given as the source filed them. No stated cut-off is given here; in the data, active = GI50 up to about 1.1 µM and inactive = higher.

| MOLECULE | GI50 |
| --- | --- |
| CCOC(=O)C1(C)CCC(C(=O)OC)C1=O (stereo unspecified) | 87.9 µM (inactive) |
| C/C(=N/NC(=O)c1ccncc1)C(F)(F)F | > 100 µM (inactive) |
| CNC(=S)/C(C#N)=C(\N)N1CCN(C)CC1 | > 100 µM (inactive) |
| COc1ccc(CNc2cc(OC)c(OC)c(OC)c2)cc1 | 3.98 µM (inactive) |
| O=C1C(Cl)N(c2ccc(Cl)cc2)C1c1c[nH]c2ccccc12 (stereo unspecified) | 14.7 µM (inactive) |
| O=C(CC1C(=O)c2ccccc2C1=C1C(=O)c2ccccc2C1=O)c1ccccc1 (stereo unspecified) | 77.3 µM (inactive) |

----------
- Test system: MOLT-4
- TEST NAME: NCI tumour cell line growth inhibition, 48 h
The source made the active and inactive calls. No stated cut-off is given here; in the data, active = GI50 up to about 1.1 µM and inactive = higher. Where a SMILES comes first, the peptide text is derived from it. [ ]: non-standard residue; d: D form. The star is where a group is joined. Iva = CC[C](C)(N)C(=O)O; Boc = CC(C)(C)OC(=O)*; X54 = C1CCC(=NO*)C1

| MOLECULE | GI50 |
| --- | --- |
| CCCN(C(=O)c1c(Cl)nnc(Cl)c1C(=O)c1cc(Cl)nnc1Cl)c1cc(Cl)nnc1Cl | 3.36 µM (inactive) |
| CC1(C)C2C=CC1(C)C1(CC2)OCCO1 (stereo not given) | > 100 µM (inactive) |
| COc1cc2c(cc1OC)C1(c3ccccc3)ON=C(c3ccccc3)N1CS2 (stereo not given) | 16.1 µM (inactive) |
| CCOP(=O)(OCC)C(Nc1ccc(F)cc1)c1cccc([N+](=O)[O-])c1 (stereo not given) | 37.2 µM (inactive) |
| Cc1ccc(OCCn2cc(Nc3ccccc3)c(=O)[nH]c2=O)cc1 | > 100 µM (inactive) |
| COc1ccc(C[P+]2(c3ccccc3)CCCCC2)cc1.O=[N+]([O-])c1ccc(C[P+]2(c3ccccc3)CCCCC2)cc1.[O-][Cl+3]([O-])([O-])[O-].[O-][Cl+3]([O-])([O-])[O-] | 63.8 µM (inactive) |
| O=[N+]([O-])c1cc(Cl)ccc1S(=O)(=O)c1ccc(Cl)cc1[N+](=O)[O-] | 25 µM (inactive) |
| O=c1nc(N2CCNCC2)oc2cc(Cl)oc(=O)c12 | 1.76 µM (inactive) |
| CCC(C)(NC(=O)C(C)NC(=O)OC(C)(C)C)C(=O)NC(C)C(=O)NC(C)(CC)C(=O)ON=C1CCCC1 (stereo not given) (Boc-A[Iva]A[Iva]-X54; configuration not given here) | 29.9 µM (inactive) |
| CCCCCCCCCCCCCCCC(=O)OCC1OC(n2cc(F)c(=O)[nH]c2=O)C(NC(=O)OCc2ccccc2)C(O)C1O (stereo not given) | 18.2 µM (inactive) |
| C#CCCOC(=O)c1ccccc1OC(C)=O | > 100 µM (inactive) |
| CCOC(=O)C1Cc2ccc3c4c(ccc(c24)C1)CC(C(=O)OCC)C3 | > 100 µM (inactive) |
| O=N/N=c1\o[n-][n+](CCc2ccccc2)c1Cc1/c(=N/N=O)o[n-][n+]1CCc1ccccc1 | > 100 µM (inactive) |
| COc1ccc(Nc2c(C#N)c3n(c4ccccc24)c2ccccc2[n+]3C)cc1OC | 1.68 µM (inactive) |
| CC(=O)NC(NCCN)(c1ccccc1)c1ccccc1 | > 100 µM (inactive) |
| Clc1ccc2c(c1)C1C(CO2)C(c2ccccc2)=NN1c1ccccc1 (stereo not given) | 22 µM (inactive) |
| C=CCCC(O)c1cc(C)c(O)c(C)c1 (stereo not given) | > 100 µM (inactive) |
| NN/C(Cc1ccccc1)=N/NC(N)=S | 49.9 µM (inactive) |
| CCOP(=O)(OCC)/C(=C\N1C(=O)CC(=O)NC1=S)C(=O)OC | > 100 µM (inactive) |
| CCOC(=O)C(=CNc1ccc(F)c(F)c1)C(=O)OCC | 46 µM (inactive) |
| Clc1ccc(Cc2nc3cc(Cl)ccc3o2)cc1 | 26.5 µM (inactive) |
| CC1=CC(C)C/C=C/C2C3OC3(C)C(C)C3C(Cc4c[nH]c5ccccc45)NC(=O)C23C(=O)C=CC(=O)C1O (stereo not given) | 2.01 µM (inactive) |
| CCCCCCCCCC1CC(=O)Oc2cccc(O)c21 (stereo not given) | 26.7 µM (inactive) |
| O=C1NC(=S)NC1C(Cc1ccccc1)c1ccco1 (stereo not given) | 81.7 µM (inactive) |
| O=Cc1ccc(OCc2cccc(COc3ccc(/C=N\Nc4ccc([N+](=O)[O-])cc4[N+](=O)[O-])cc3)n2)cc1 | 33.9 µM (inactive) |
| CC1(C)NC(=O)N(CCCCCCN2C(=O)NC(C)(C)C2=O)C1=O | > 100 µM (inactive) |
| CCOC(=O)C1(C(=O)OCC)OC(C)=NC1(C(=O)OC)C(=O)OC | > 87.1 µM (inactive) |
| CNC(=O)CCC(NC(C)=O)C(=O)NC(Cc1ccc(NC(=O)CCCCC(C)=O)cc1)C(=O)NC(CCC(=O)NC)C(=O)NC (stereo not given) | > 100 µM (inactive) |
| CN/C(=N\C#N)N(Cc1ccccc1)Cc1ccccc1 | > 100 µM (inactive) |
| Cc1ccccc1OC(C)C(=O)NN1C(=O)CC(=O)NC1=S (stereo not given) | 94.8 µM (inactive) |
| Cc1ccc(/N=C2/C(c3ccccc3)=C(SC3=C(c4ccccc4)/C(=N/c4ccc(C)cc4)c4ccccc43)c3ccccc32)cc1 | > 87.7 µM (inactive) |
| C=C(C)C1CC2C(C)=C(OC(C)=O)C1n1c(=O)c3cc4ccccc4cc3c(=O)n12 (stereo not given) | 32.7 µM (inactive) |
| COc1ccc(NC(=O)c2cc(NC(=O)/C=C/c3ccccc3)c(OC)c(OC)c2)cc1 | 6 µM (inactive) |
| O=C(CSc1nc2ccc(I)cc2c(=O)n1Cc1ccccc1)Nc1ccccc1 | > 100 µM (inactive) |
| COC(=O)C1CCC(C)CC1=O (stereo not given) | > 100 µM (inactive) |
| CC(=O)NC1C(OC2C(CO)OC(OCC3OC(n4ccc(N)nc4=O)C(O)C3O)C(NC(C)=O)C2O)OC(CO)C(O)C1O (stereo not given) | > 29.4 µM (inactive) |
| CNNC1=NS(=O)(=O)c2cc(C)c(Cl)cc2S1 | > 10 µM (inactive) |
| Nc1ncnc2c1nnn2C1CCC(CP(=O)(O)O)C1 (stereo not given) | > 100 µM (inactive) |
| CCOC(=O)C1(Cc2ccc3c(c2)CCC3)Cc2cc3c(cc2C1=O)CCC3 (stereo not given) | 11.9 µM (inactive) |
| CN1CCC2(CC1)C(=O)N(NC(N)=O)C(=O)C2c1ccccc1 (stereo not given) | > 100 µM (inactive) |
